Compiled pKi measurements on Mcl-1 (Homo sapiens) taken from the literature.
pKi: −log10 of the molar value.
assay.metric: pKi

The cases that follow already have their pKi on record.
Incoming: Under Mcl-1 (Homo sapiens), report pKi for `CC(C)Cc1ccc(Oc2ccc3c4c(cccc24)C2=NC(=O)C(C#N)=C23)cc1`
Outgoing: 7.92

Incoming: Consider the compound `Cc1c(C(=O)O)n2c3ccc(Cl)c(c13)-c1c(nn(C)c1C)CSCc1cc(n(C)n1)CCc1cc(c3ccccc3c1)OCCC2` tested on Mcl-1 (Homo sapiens); state its pKi.
Outgoing: 8.87

(P) Cc1ccc(S(=O)(=O)N(Cc2ccc(F)cc2)Cc2cc(CNS(=O)(=O)c3cc(Cl)cc(Cl)c3O)cc(-c3ccc(F)cc3)c2)cc1
(Q) COC(=O)c1cc(Cl)cc(S(=O)(=O)N(Cc2ccc(F)cc2)Cc2cccc(-c3ccc(Cl)cc3)c2)c1O
(R) O=C(N[C@H]1C[C@@H]1c1ccccc1)c1ccc(CN(Cc2ccc(F)cc2)S(=O)(=O)c2cc(Cl)cc(Cl)c2O)cc1
(S) CCc1c(C(=O)O)n2c3ccc(Cl)c(c13)-c1c(nn(C)c1C)CSCc1cc(n(C)n1)CSc1cc(c3ccccc3c1)OCCC2 (single isomer, unassigned)
Incoming: Returns the items ordered by pKi, from maximum to minimum. Response format: the labels, sorted as the prompt asks.
Outgoing: S, P, R, Q
